Numbers sourced from ChEMBL document CHEMBL3988442.

Biological target: Ubiquitin-activating enzyme e1, putative (Leishmania donovani (strain BPK282A1))
Sequence (whole entry): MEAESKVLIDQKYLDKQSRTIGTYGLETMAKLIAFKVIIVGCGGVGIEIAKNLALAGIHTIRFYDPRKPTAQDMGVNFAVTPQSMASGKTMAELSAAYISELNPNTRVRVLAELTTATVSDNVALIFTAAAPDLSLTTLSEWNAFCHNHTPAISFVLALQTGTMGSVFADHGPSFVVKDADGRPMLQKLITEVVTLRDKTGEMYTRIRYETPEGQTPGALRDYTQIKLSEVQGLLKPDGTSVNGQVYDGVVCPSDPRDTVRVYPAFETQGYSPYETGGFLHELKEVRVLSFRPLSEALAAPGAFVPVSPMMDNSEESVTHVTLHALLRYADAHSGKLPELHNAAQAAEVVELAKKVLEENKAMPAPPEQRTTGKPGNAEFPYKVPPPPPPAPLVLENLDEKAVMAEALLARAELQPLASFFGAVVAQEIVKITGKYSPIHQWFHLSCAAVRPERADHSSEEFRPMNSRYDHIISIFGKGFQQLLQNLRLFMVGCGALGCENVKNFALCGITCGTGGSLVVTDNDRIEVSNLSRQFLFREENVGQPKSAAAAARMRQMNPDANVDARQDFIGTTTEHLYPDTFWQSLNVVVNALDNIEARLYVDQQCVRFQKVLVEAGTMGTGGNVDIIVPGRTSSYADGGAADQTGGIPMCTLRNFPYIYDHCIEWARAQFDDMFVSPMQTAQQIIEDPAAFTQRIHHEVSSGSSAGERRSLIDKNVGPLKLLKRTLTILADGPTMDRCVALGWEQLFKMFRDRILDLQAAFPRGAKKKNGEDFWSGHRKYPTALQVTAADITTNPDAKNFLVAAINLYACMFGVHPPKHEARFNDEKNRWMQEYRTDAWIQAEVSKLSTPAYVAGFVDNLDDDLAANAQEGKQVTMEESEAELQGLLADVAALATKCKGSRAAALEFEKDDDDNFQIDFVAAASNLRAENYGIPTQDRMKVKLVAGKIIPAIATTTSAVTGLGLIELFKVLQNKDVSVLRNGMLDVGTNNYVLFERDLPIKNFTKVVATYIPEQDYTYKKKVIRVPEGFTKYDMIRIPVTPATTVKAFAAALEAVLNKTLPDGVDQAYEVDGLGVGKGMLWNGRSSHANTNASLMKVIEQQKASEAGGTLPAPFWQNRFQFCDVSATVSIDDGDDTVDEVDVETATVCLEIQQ
Experiment: Leishmania donovani Ubiquitin Activating Enzyme (LdE1)
Type: functional
Design: scale not given: direction of the effect not stated beside the values
Conditions: 30 µM
Results with a measured potency or affinity are listed apart.
Each entry below carries its recorded Percent Effect.
Reply with just the number (in %).

[[record]]
compound = "O=C(c1cnc(C2CC2)s1)N1CCCCC1Cn1cccn1 (centres undefined)"
recorded_value = 1.27

[[record]]
compound = "O=C(c1ccc2c(c1)COC2)N1CCC(Nc2cccnn2)CC1"
recorded_value = 13

[[record]]
compound = "Cc1ccn(-c2ccccc2NCc2cccnc2C)n1"
recorded_value = 0

[[record]]
compound = "CCC1=N[C@@]2(CC[C@@H]3CN(C(=O)NCC(C)C)C[C@@H]32)C(=O)N1CC(C)C"
recorded_value = 8

[[record]]
compound = "CCN1CCC(c2nc3ccc(NC(C)C)cn3n2)CC1"
recorded_value = -2.7


Query: Determine from records and report Percent Effect for Cc1cccc(-n2ncc(C(=O)N3CCn4c(C)nnc4C3)c2C)c1
Result: 13.2

Query: Determine from records and report Percent Effect for Cc1noc(C)c1-c1cncc(C2CCCN2Cc2cncnc2)n1 (centres undefined)
Result: 2.67

Query: Determine from records and report Percent Effect for COCCO[C@@H]1CCN(C(=O)c2ccc(C)o2)[C@@H]1Cc1cccnc1
Result: 0

Query: Determine from records and report Percent Effect for CCn1nc(C)c2nc(C(C)C)nc(N3CCCCC3)c21
Result: 2.6

Query: Determine from records and report Percent Effect for Cn1cc(N2CC3(CCN(Cc4cccs4)CC3)OCC2=O)cn1
Result: -2.74

Query: Determine from records and report Percent Effect for Cc1csc(N2CCN(CC(=O)Nc3nncs3)CC2C)n1 (centres undefined)
Result: 0

Query: Determine from records and report Percent Effect for CCc1ccc(S(=O)(=O)Nc2c(C)cccc2C(=O)O)s1
Result: 5.26

Query: Determine from records and report Percent Effect for CC(C)Cc1noc(CN2CCOC(Cn3cncn3)C2)n1 (centres undefined)
Result: 10.8

Query: Determine from records and report Percent Effect for Cc1cc(CN(C)C(=O)c2cc3c([nH]c2=O)CCCC3=O)no1
Result: 5.41

Query: Determine from records and report Percent Effect for CCCC(NC(=O)c1cc(C)ccc1C)c1nnn[nH]1 (centres undefined)
Result: 13.3

Query: Determine from records and report Percent Effect for CC(C)(C)NC(=O)CNC(=O)CCc1ccccc1Br
Result: 15.3

Query: Determine from records and report Percent Effect for CN(Cc1ccco1)Cc1ccccc1CNC(=O)c1ccncc1
Result: 5.41
